Origin of the recorded values: paper PMC12516379

experiment: Plasma stability assay at 37 °C via LC-MS/MS, human plasma; type: in vitro ADME; details: human, plasma, LC-MS/MS, read-out: Half-life (t½) Plasma 37°C (converted);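 also: prodrugs at 3 µM incubated in human plasma at 37 °C, intact prodrug quantified by LC-MS/MS over time, values are means of duplicate runs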
OBSERVATION_TYPE: half-life at 3 µM (h)
Give a bare numeral; the unit h is implied.

Exam item: // lookup half-life at 3 µM for CNCCN(C(=O)O/N=C(\C)[C@H]1CC[C@H]2[C@@H]3CCC4=CC(=O)CC[C@]4(C)[C@H]3CC[C@]12C)C1CCC1.O=C(O)C(F)(F)F [20d]
Marked response: 2.67

Exam item: // lookup half-life at 3 µM for CNCCN(C(=O)O/N=C(\C)[C@H]1CC[C@H]2[C@@H]3CCC4=CC(=O)CC[C@]4(C)[C@H]3CC[C@]12C)C(C)C.O=C(O)C(F)(F)F [20c]
Marked response: 1.59

Exam item: // lookup half-life at 3 µM for C/C(=N\OC(=O)N(C)C[C@@H]1CCCN1)[C@H]1CC[C@H]2[C@@H]3CCC4=CC(=O)CC[C@]4(C)[C@H]3CC[C@]12C.O=C(O)C(F)(F)F [20l]
Marked response: 0.31

====

Recorded half-life at 1 mg/mL, one value per entry.
test: Stability in PBS at room temperature via HPLC (UV); format: physicochemical; settings: phosphate-buffered saline (DPBS), pH 7.03, PBS, rt; read-out: t½: PBS, rt (Table S23) (converted)
Give a bare numeral; the unit min is implied.

compound="CNC1(CN(C)C(=O)O/N=C(\\C)[C@H]2CC[C@H]3[C@@H]4CCC5=CC(=O)CC[C@]5(C)[C@H]4CC[C@]23C)CCC1 [20t]" observation_type="half-life at 1 mg/mL" result_unit=min numeric_result=629
compound="CNCCN(CCn1ccnc1)C(=O)O/N=C(\\C)[C@H]1CC[C@H]2[C@@H]3CCC4=CC(=O)CC[C@]4(C)[C@H]3CC[C@]12C [20k]" observation_type="half-life at 1 mg/mL" result_unit=min numeric_result=2820
compound="C/C(=N\\OC(=O)N(C)C[C@@H]1CCCN1)[C@H]1CC[C@H]2[C@@H]3CCC4=CC(=O)CC[C@]4(C)[C@H]3CC[C@]12C.O=C(O)C(F)(F)F [20l]" observation_type="half-life at 1 mg/mL" result_unit=min numeric_result=114
compound="C/C(=N\\OC(=O)N(C)C[C@@H]1CCN1)[C@H]1CC[C@H]2[C@@H]3CCC4=CC(=O)CC[C@]4(C)[C@H]3CC[C@]12C [20o]" observation_type="half-life at 1 mg/mL" result_unit=min numeric_result=378
compound="CNCCN(CCNC)C(=O)O/N=C(\\C)[C@H]1CC[C@H]2[C@@H]3CCC4=CC(=O)CC[C@]4(C)[C@H]3CC[C@]12C.Cl.Cl [20x]" observation_type="half-life at 1 mg/mL" result_unit=min numeric_result=90.6
compound="C/C(=N\\OC(=O)N(CCN)CCN)[C@H]1CC[C@H]2[C@@H]3CCC4=CC(=O)CC[C@]4(C)[C@H]3CC[C@]12C [20w]" observation_type="half-life at 1 mg/mL" result_unit=min numeric_result=608

# evaluate next
Exam item: // lookup half-life at 1 mg/mL for CNCCN(CCN1CCCC1)C(=O)O/N=C(\C)[C@H]1CC[C@H]2[C@@H]3CCC4=CC(=O)CC[C@]4(C)[C@H]3CC[C@]12C.O=C(O)C(F)(F)F [20h]
Marked response: 434
